For each record, write down the corresponding % Kill, PC3/PRLR cells.
Target: T1, human prolactin receptor (PRLR) (human, UniProt P16471 25-622)
T1 sequence: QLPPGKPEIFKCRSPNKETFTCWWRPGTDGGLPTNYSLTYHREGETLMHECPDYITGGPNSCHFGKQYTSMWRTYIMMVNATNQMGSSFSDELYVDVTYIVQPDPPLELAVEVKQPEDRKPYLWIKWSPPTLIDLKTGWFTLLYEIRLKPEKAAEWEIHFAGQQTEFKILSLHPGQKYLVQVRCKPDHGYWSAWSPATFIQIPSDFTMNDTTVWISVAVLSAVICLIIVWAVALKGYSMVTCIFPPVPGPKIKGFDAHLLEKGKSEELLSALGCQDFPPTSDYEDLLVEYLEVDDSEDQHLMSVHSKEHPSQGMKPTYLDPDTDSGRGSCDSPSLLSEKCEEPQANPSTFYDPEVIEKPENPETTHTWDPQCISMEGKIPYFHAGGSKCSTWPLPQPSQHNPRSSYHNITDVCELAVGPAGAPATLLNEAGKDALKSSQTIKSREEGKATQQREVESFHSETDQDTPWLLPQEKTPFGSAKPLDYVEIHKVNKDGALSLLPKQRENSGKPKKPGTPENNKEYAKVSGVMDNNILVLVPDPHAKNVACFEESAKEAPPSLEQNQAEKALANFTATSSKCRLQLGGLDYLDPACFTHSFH
Assay: cell-based or functional assay
Give bare numbers, in %.

H1H6800P-DM1 (antibody, human IgG1, V domains shown, DM1 conjugated through SMCC linker; attachment residues not stated) VH: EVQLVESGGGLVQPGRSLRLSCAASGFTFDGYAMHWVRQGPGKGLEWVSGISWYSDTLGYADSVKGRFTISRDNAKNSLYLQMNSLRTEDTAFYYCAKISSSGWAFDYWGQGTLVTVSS VL: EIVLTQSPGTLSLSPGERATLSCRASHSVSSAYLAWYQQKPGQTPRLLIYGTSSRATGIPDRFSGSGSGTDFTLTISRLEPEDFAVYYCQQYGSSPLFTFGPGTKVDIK
68
H1H6803P-DM1 (antibody, human IgG1, V domains shown, DM1 conjugated through SMCC linker; attachment residues not stated) VH: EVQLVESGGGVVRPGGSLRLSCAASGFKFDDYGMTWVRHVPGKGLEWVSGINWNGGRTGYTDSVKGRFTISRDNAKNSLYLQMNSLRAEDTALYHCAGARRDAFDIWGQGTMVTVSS VL: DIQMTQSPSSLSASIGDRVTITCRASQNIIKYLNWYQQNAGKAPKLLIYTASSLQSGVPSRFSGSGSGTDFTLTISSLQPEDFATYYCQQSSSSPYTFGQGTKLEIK
70

What does the record list as % Kill, PC3/PRLR cells for H1H6793P-DM1 (antibody, human IgG1, V domains shown, DM1 conjugated through SMCC linker; attachment residues not stated) VH: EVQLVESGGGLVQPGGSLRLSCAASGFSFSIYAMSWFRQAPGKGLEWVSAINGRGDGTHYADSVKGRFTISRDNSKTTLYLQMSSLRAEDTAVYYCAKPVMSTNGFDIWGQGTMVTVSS VL: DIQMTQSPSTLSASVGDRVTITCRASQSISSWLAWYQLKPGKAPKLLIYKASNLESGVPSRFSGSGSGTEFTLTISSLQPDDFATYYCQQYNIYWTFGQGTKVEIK ?
65
